ASSAY_METHOD_TEXT: Cytotoxicity against human EOL-1 cells after 48 hrs by MTT assay
Type: functional, cell-based
CONDITIONS: EOL1, 48 h
EXPERIMENTAL_ENDPOINT: IC50 (µM)
Just the number in µM, nothing appended.

# count of solved cases: 2
# COMPOUND, IC50 (µM)
records = [
    ("O=C(/C=C/c1ccc(O)cc1)CC(=O)/C=C/c1ccc(O)cc1 [BISDEMETHOXYCURCUMIN]", 22.3),
    ("COc1cc(/C=C/C(=O)CC(=O)/C=C/c2ccc(O)c(OC)c2)ccc1O [CURCUMIN]", 6.7),
]

Request the reported IC50 associated with COc1cc(/C=C/C(O)=C/C(=O)/C=C/c2ccc(O)cc2)ccc1O [DEMETHOXYCURCUMIN]
15.6
